Source listed as PubChem BioAssay AID1963826.

System: 926638-142-R-J1-PDC complex spheroid viability
assay.explanation: Anticancer human tumor 926638-142-R-J1-PDC patient-derived endometrial carcinoma cell line growth inhibition [POLQ]
measurement.conditions: curve of first compound; second compound 3.16 µM
pIC50: −log10 of the molar value.
result.type: pIC50

(Q) Item O=C(Nc1ccc(O)c(NS(=O)(=O)c2ccc(F)cc2)c1)c1ccc(-c2ccccc2)cc1 + COC1C(OC(N)=O)C(O)C(Oc2ccc3c(O)c(NC(=O)c4ccc(O)c(CC=C(C)C)c4)c(=O)oc3c2C)OC1(C)C has what recorded pIC50?
(A) < 5.00

(Q) Give the measured pIC50 of CC(C)n1c(=O)n(C)c2cnc3cc(F)c(-c4ccc(OCCCN5CCCCC5)nc4)cc3c21 + Nc1ccc(C#CCN(C(=O)Cc2ncc(C(F)(F)F)cc2C(F)(F)F)c2ccc(F)cc2)nn1 .
(A) < 5.00

(Q) Return reported pIC50; argument: O=c1[nH]cc(F)c(=O)[nH]1 + COC1C(OC(N)=O)C(O)C(Oc2ccc3c(O)c(NC(=O)c4ccc(O)c(CC=C(C)C)c4)c(=O)oc3c2C)OC1(C)C
(A) < 5.00

(Q) // pIC50 lookup, key: COc1cc(C2c3cc4c(cc3C(OC3OC5COC(C)OC5C(O)C3O)C3COC(=O)C23)OCO4)cc(OC)c1O (centres undefined) + COC1C(OC(N)=O)C(O)C(Oc2ccc3c(O)c(NC(=O)c4ccc(O)c(CC=C(C)C)c4)c(=O)oc3c2C)OC1(C)C
(A) < 5.00

###

System: 926638-142-R-J1-PDC complex spheroid viability
assay.explanation: Anticancer human tumor 926638-142-R-J1-PDC cell line growth inhibition [POLQ];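 note: spheroids exposed to drugs for one week before readout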
measurement.conditions: curve of first compound; second compound 1 µM
What IC50 was measured for each of the following?

(Q) Item: CNCc1ccc(-c2[nH]c3cc(F)cc4c3c2CCNC4=O)cc1 + Nc1ccc(C#CCN(C(=O)Cc2ncc(C(F)(F)F)cc2C(F)(F)F)c2ccc(F)cc2)nn1 Test system: 926638-142-R-J1-PDC complex spheroid viability Read-out: IC50 Value: ?
(A) > 10 µM

(Q) Test system 926638-142-R-J1-PDC complex spheroid viability; read-out IC50; what value for COc1cc(C2c3cc4c(cc3C(OC3OC5COC(C)OC5C(O)C3O)C3COC(=O)C23)OCO4)cc(OC)c1O (stereo not drawn) + Cc1cccc(N(C)C(=O)C2C(O)CCN2c2nc(C)cc(C(F)(F)F)c2C#N)c1 ?
(A) > 10 µM

(Q) Report IC50 for O=C(Nc1ccc(O)c(NS(=O)(=O)c2ccc(F)cc2)c1)c1ccc(-c2ccccc2)cc1 + Nc1ccc(C#CCN(C(=O)Cc2ncc(C(F)(F)F)cc2C(F)(F)F)c2ccc(F)cc2)nn1 tested on 926638-142-R-J1-PDC complex spheroid viability.
(A) > 10 µM

###

Provide the recorded viability, T/C for the entries that follow.
Tested on: 926638-142-R-J1-PDC complex spheroid viability
assay.explanation: Anticancer human tumor 926638-142-R-J1-PDC cell line growth inhibition [POLQ];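 note: spheroids exposed to drugs for one week before readout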;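 for viability, T/C: percent viability relative to DMSO vehicle control wells set as 100%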
measurement.conditions: second compound 0.0316 µM; first compound 3.16 µM; stronger effect = lower value

(Q) Looking for the measured viability, T/C of CCc1cc2c(N3CCc4c(cc(Cn5ccnc5)cc4-c4cn(C)nc4C(F)(F)F)C3=O)cc(C)nc2c(OC)n1 + Nc1ccc(C#CCN(C(=O)Cc2ncc(C(F)(F)F)cc2C(F)(F)F)c2ccc(F)cc2)nn1 , can you help?
(A) 51.3%

(Q) GET /values?readout=viability, T/C&item= C#Cc1c(F)ccc2cc(O)cc(-c3ncc4c(N5CC6CCC(C5)N6)nc(OCC56CCCN5CC(F)C6)nc4c3F)c12 (centres undefined) + Nc1ccc(C#CCN(C(=O)Cc2ncc(C(F)(F)F)cc2C(F)(F)F)c2ccc(F)cc2)nn1
(A) 71.8%

(Q) Would you kindly share the measured viability, T/C for O=c1[nH]cc(F)c(=O)[nH]1 + Nc1ccc(C#CCN(C(=O)Cc2ncc(C(F)(F)F)cc2C(F)(F)F)c2ccc(F)cc2)nn1 ?
(A) 86.5%

(Q) Entry CNCc1ccc(-c2[nH]c3cc(F)cc4c3c2CCNC4=O)cc1 + Cc1cccc(N(C)C(=O)C2C(O)CCN2c2nc(C)cc(C(F)(F)F)c2C#N)c1 : reported viability, T/C = ?
(A) 89.9%

###

Test system: 926638-142-R-J1-PDC complex spheroid viability
assay.explanation: Anticancer human tumor 926638-142-R-J1-PDC cell line growth inhibition [POLQ];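 note: spheroids exposed to drugs for one week before readout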;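 for viability, T/C: percent viability relative to DMSO vehicle control wells set as 100%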
measurement.conditions: second compound 1 µM; first compound 0.316 µM; stronger effect = lower value
Procedure: Multicellular complex tumor spheroid response to Polymerase (POL) inhibitors (novobiocin, ART-558, RP6685) in combination with a variety of drugs and investigational agents in selected tumor cell lines The POL inhibitors (novobiocin, ART-558, and RP6685) were evaluated both individually and in combination with standard of care and investigational anticancer small molecules within a complex spheroid model of solid tumors. . […]
Please go through the items and note down their viability, T/C.

(Q) Given the entry CC1COCCN1c1cc(C2(O)CC3CCC(C2)O3)c2cnn(-c3ccn[nH]3)c2n1 (centres undefined) + Nc1ccc(C#CCN(C(=O)Cc2ncc(C(F)(F)F)cc2C(F)(F)F)c2ccc(F)cc2)nn1 , report its measured viability, T/C.
(A) 35.8%

(Q) Requested field: viability, T/C. Item: CC(C)n1c(=O)n(C)c2cnc3cc(F)c(-c4ccc(OCCCN5CCCCC5)nc4)cc3c21 + Nc1ccc(C#CCN(C(=O)Cc2ncc(C(F)(F)F)cc2C(F)(F)F)c2ccc(F)cc2)nn1
(A) 84.7%

(Q) What value of viability, T/C has been reported for the following compound? C#Cc1c(F)ccc2cc(O)cc(-c3ncc4c(N5CC6CCC(C5)N6)nc(OCC56CCCN5CC(F)C6)nc4c3F)c12 (centres undefined) + COC1C(OC(N)=O)C(O)C(Oc2ccc3c(O)c(NC(=O)c4ccc(O)c(CC=C(C)C)c4)c(=O)oc3c2C)OC1(C)C
(A) 80.9%

(Q) Suppose we examine the compound CC(C)n1c(=O)n(C)c2cnc3cc(F)c(-c4ccc(OCCCN5CCCCC5)nc4)cc3c21 + COC1C(OC(N)=O)C(O)C(Oc2ccc3c(O)c(NC(=O)c4ccc(O)c(CC=C(C)C)c4)c(=O)oc3c2C)OC1(C)C ; what viability, T/C value has been reported?
(A) 104%

###

Tested on: 926638-142-R-J1-PDC complex spheroid viability
assay.explanation: Anticancer human tumor 926638-142-R-J1-PDC cell line growth inhibition [POLQ];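 note: spheroids exposed to drugs for one week before readout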;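 for viability, T/C: percent viability relative to DMSO vehicle control wells set as 100%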
measurement.conditions: second compound 0.0316 µM; first compound 1 µM; stronger effect = lower value
Field: viability, T/C. Provide a value for each of the compounds that follow.
Write down the numeric answer in % and omit the unit.

(Q) Enter reported viability, T/C observed with 926638-142-R-J1-PDC complex spheroid viability for C=CCn1c(=O)c2cnc(Nc3ccc(N4CCN(C)CC4)cc3)nc2n1-c1cccc(C(C)(C)O)n1 + COC1C(OC(N)=O)C(O)C(Oc2ccc3c(O)c(NC(=O)c4ccc(O)c(CC=C(C)C)c4)c(=O)oc3c2C)OC1(C)C
(A) 41.6

(Q) Item: CCc1cc2c(N3CCc4c(cc(Cn5ccnc5)cc4-c4cn(C)nc4C(F)(F)F)C3=O)ccnc2c(OC)n1 + COC1C(OC(N)=O)C(O)C(Oc2ccc3c(O)c(NC(=O)c4ccc(O)c(CC=C(C)C)c4)c(=O)oc3c2C)OC1(C)C Test system: 926638-142-R-J1-PDC complex spheroid viability Read-out: viability, T/C Value: ?
(A) 38.5

(Q) // fetch 926638-142-R-J1-PDC complex spheroid viability viability, T/C for CC1COCCN1c1cc(C2(S(C)(=N)=O)CC2)nc(-c2ccnc3[nH]ccc23)n1 (centres undefined) + Cc1cccc(N(C)C(=O)C2C(O)CCN2c2nc(C)cc(C(F)(F)F)c2C#N)c1
(A) 101

(Q) # value lookup — system 926638-142-R-J1-PDC complex spheroid viability, readout viability, T/C, item CC1COCCN1c1cc(C2(O)CC3CCC(C2)O3)c2cnn(-c3ccn[nH]3)c2n1 (centres undefined) + Nc1ccc(C#CCN(C(=O)Cc2ncc(C(F)(F)F)cc2C(F)(F)F)c2ccc(F)cc2)nn1
(A) 14.8

###

For each of the compounds below, state its IC50.
Test system: 926638-142-R-J1-PDC complex spheroid viability
assay.explanation: Anticancer human tumor 926638-142-R-J1-PDC cell line growth inhibition [POLQ];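 note: spheroids exposed to drugs for one week before readout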
measurement.conditions: curve of first compound; second compound 3.16 µM
Just the number please, in nM, no unit attached.

(Q) State the recorded IC50 for this entry: CCCS(=O)(=O)Nc1ccc(F)c(C(=O)c2c[nH]c3ncc(-c4ccc(Cl)cc4)cc23)c1F + Cc1cccc(N(C)C(=O)C2C(O)CCN2c2nc(C)cc(C(F)(F)F)c2C#N)c1
(A) 9330

(Q) Field request: IC50 | item: CCc1c2c(nc3ccc(O)cc13)-c1cc3c(c(=O)n1C2)COC(=O)[C@]3(O)CC + Cc1cccc(N(C)C(=O)C2C(O)CCN2c2nc(C)cc(C(F)(F)F)c2C#N)c1
(A) 12.2
